target: human CXCR2 receptor (Homo sapiens, UniProt P25025); experiment: [35S]-GTPγS binding assay for human CXCR2 receptor using SPA technology; details: CHO-K1 membranes expressing human CXCR2 receptors; 100 nM IL-8 stimulated [35S]GTPγS binding; read-out: IC50 values in the [35S]-GPTγS binding assay
Sequence (P25025 whole entry): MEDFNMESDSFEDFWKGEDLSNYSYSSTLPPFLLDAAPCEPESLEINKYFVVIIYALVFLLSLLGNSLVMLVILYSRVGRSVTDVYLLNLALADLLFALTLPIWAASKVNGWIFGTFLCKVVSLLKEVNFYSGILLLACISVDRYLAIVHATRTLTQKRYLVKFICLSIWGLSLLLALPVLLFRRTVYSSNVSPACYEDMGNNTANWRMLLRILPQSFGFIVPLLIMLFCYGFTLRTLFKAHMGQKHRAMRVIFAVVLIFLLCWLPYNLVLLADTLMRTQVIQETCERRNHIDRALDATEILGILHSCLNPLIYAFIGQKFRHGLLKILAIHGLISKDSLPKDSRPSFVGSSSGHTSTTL
pIC50: −log10 of the molar value.
Rule: pIC50 under 6 gives 0.0, otherwise 1.0.

compound="Cc1cc2nc(CCc3ccccc3F)cc(O)n2n1 [Example 1]" label=0.0
compound="Oc1cc(COc2cccc(F)c2F)nc2cc(-c3ccco3)nn12 [Example 22]" label=0.0
compound="Oc1cc(CCc2cccc(F)c2F)nc2cc(-c3ccco3)nn12 [Example 7]" label=1.0
compound="Oc1cc(COc2ccccc2Cl)nc2cc(-c3ccco3)nn12 [Example 23]" label=0.0
compound="Cc1cc2nc(COc3ccccc3Cl)cc(O)n2n1 [Example 10]" label=0.0
compound="Oc1cc(COc2c(F)cccc2F)nc2cc(-c3ccco3)nn12 [Example 14]" label=0.0

Numbers sourced from patent US20110009429A1.
